These entries and their values trace back to patent US6982348B2.

# Molecule, melting point
measured = [
    ("NC(=O)c1ccc(C(=O)N[C@H](Cc2ccc(C(F)(F)F)cc2)[C@@H](O)c2ccc(F)cc2)c2ccccc12 (racemic) [Example 104]", "255 to 256 °C"),
    ("COc1ccc(-c2ccc([C@H](O)[C@@H](Cc3cccc(OC(F)(F)C(F)F)c3)NC(=O)c3cccc4c3C=CCCC4)cc2)cc1 (racemic) [Example 297]", "162 to 163 °C"),
    ("CC1(C)COc2ccc(C[C@@H](NC(=O)c3cccc4c(Cl)cccc34)[C@@H](O)c3cccc(Cl)c3)cc21 (racemic) [Example 378]", "191 to 192 °C"),
    ("O=C(NC(Cc1ccc(C(F)(F)F)cc1)C(O)c1ccc(F)cc1)c1ccc(-c2ccccc2)cc1 (racemic) [Example 20]", "178 to 185 °C"),
    ("O=C(N[C@H](Cc1ccc(C(F)(F)F)cc1)[C@H](O)c1ccc(F)cc1)c1ccc(C(F)(F)F)cc1 (racemic) [Example 27]", "162 to 163 °C"),
    ("O=C(N[C@H](Cc1ccc(C(F)(F)F)cc1)[C@@H](O)c1ccc(F)cc1)c1cc([N+](=O)[O-])cc2c1CCCC2 (racemic) [Example 111]", "216 to 217 °C"),
]

====

Entries and their melting point values follow.

# Compound, melting point
records = [
    ("O=C(N[C@H](Cc1cccc(OC(F)(F)C(F)F)c1)[C@@H](O)c1ccc(F)cc1)OCc1ccccc1 (racemic) [Example 287]", "136 to 137 °C"),
    ("O=C(N[C@H](Cc1cccc(CC(F)(F)C(F)F)c1)[C@@H](O)c1ccc(F)cc1)c1ccc(F)c2ccccc12 (racemic) [Example 339]", "172 to 173 °C"),
    ("CC(C)(C)OC(=O)Nc1ccc([C@H](O)[C@@H](Cc2cccc(OC(F)(F)C(F)F)c2)NC(=O)c2cccc3c2C=CCCC3)cc1 (racemic) [Example 321]", "153 to 156 °C"),
    ("O=C(N[C@H](Cc1cccc(OC(F)(F)C(F)F)c1)[C@@H](O)c1ccc(Oc2ccccc2)cc1)c1ccc(F)c2ccccc12 (racemic) [Example 267]", "155 to 156 °C"),
    ("CCOC(=O)N[C@H](Cc1cccc(OC(F)(F)C(F)F)c1)[C@@H](O)c1ccc(F)cc1 (racemic) [Example 129]", "113 to 114 °C"),
    ("O=C(CCc1ccccc1)N[C@H](Cc1ccc(C(F)(F)F)cc1)[C@@H](O)c1ccoc1 (racemic) [Example 196]", "134 to 135 °C"),
]

====

melting point values, listed per item

# Compound, melting point
data = [
    ("O=C(N[C@H](Cc1ccc(C(F)(F)F)cc1)[C@@H](O)c1cccc2ccccc12)c1ccc(F)cc1 (racemic)", "194 to 195 °C"),
    ("CC(C)(C)OC(=O)N[C@H](Cc1cccc(OC(F)(F)C(F)F)c1)[C@@H](O)c1ccc(F)cc1 (racemic)", "145 to 146 °C"),
    ("O=C(N[C@H](Cc1cccc(S(=O)(=O)C(F)(F)F)c1)[C@@H](O)c1ccc(F)cc1)c1cccc2c1C=CCCC2 (racemic)", "156 to 157 °C"),
]

====

Biological target: UniProtKB P11597
Sequence (P11597 18-493): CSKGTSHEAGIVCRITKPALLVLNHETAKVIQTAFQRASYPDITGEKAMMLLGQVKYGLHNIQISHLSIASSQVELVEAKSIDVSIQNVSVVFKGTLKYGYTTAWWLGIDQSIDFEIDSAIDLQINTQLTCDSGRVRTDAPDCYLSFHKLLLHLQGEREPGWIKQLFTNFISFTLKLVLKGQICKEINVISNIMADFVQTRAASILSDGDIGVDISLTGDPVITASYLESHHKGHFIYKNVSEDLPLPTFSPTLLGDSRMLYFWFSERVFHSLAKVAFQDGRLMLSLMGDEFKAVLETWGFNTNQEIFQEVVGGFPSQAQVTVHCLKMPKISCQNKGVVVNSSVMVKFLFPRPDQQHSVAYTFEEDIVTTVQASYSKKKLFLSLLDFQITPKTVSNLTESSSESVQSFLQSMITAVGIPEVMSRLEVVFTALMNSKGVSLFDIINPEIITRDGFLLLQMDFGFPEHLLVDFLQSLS
Test: Assay of cholesteryl ester transfer protein inhibitory activity, standard measurement system
Type: biochemical
Details: BODIPY-CE-ME donor, VLDL-LDL acceptor, reaction at 37° C. for 30 min.
For each record, check the reported IC50: if it is below 0.07 µM write Condition met, else write Condition not met.

# Compound, Category
rows = [
    ("O=C(NC(Cc1ccc(C(F)(F)F)cc1)C(O)c1ccc(F)cc1)c1ccc(F)c2ccccc12 (stereo not drawn) [227(+)-form]", "Condition not met"),
    ("CC(C)(C)c1ccc(C[C@@H](NC(=O)c2cccc3c(Cl)cccc23)[C@@H](O)c2cccc(Cl)c2)cc1 (racemic)", "Condition met"),
    ("O=C(N[C@H](Cc1ccc(C(F)(F)F)cc1)[C@@H](O)c1ccc(Oc2ccccc2)cc1)c1cccc2c1C=CCCC2 (racemic)", "Condition not met"),
    ("O=C(N[C@H](Cc1cccc(OC(F)(F)C(F)F)c1)[C@@H](O)c1ccc(Cl)cc1)c1cccc2c1C=CCCC2 (racemic)", "Condition met"),
    ("O=C(N[C@H](Cc1ccc(C(F)(F)F)cc1)[C@@H](O)c1cccc(F)c1)c1cccc2c1C=CCCC2 (racemic)", "Condition not met"),
    ("O=C(N[C@H](Cc1cccc(OC(F)(F)C(F)F)c1)[C@@H](O)c1cccc(F)n1)c1cccc2c1C=CCCC2 (racemic)", "Condition not met"),
    ("O=C(NC(Cc1ccc(C(F)(F)F)cc1)C(O)c1ccc(F)cc1)c1cccc2ccccc12 (stereo not drawn) [226(+)-form]", "Condition not met"),
    ("O=C(N[C@H](Cc1ccc(C(F)(F)F)cc1)[C@@H](O)c1ccc(F)cc1)c1cccc2c1C=CCCC2 (racemic)", "Condition not met"),
    ("O=C(NC(Cc1cccc(OC(F)(F)C(F)F)c1)C(O)c1ccc(F)cc1)c1ccc(F)c2ccccc12 (stereo not drawn) [228(+)-form]", "Condition met"),
    ("O=C(N[C@H](Cc1cccc(OC(F)(F)C(F)F)c1)[C@@H](O)c1ccc(F)cc1)c1cccc2c1C=CCC2 (racemic)", "Condition met"),
    ("O=C(N[C@H](Cc1cccc(OC(F)(F)C(F)F)c1)[C@@H](O)c1ccc(F)cc1)c1cccc2c1C=CCCC2 (racemic)", "Condition met"),
    ("CCc1cc(Oc2ccc([C@H](O)[C@@H](Cc3cccc(OC(F)(F)C(F)F)c3)NC(=O)c3cccc4c3C=CCCC4)cc2)ccc1Cl (racemic)", "Condition met"),
    ("O=C(N[C@H](Cc1cccc(OC(F)(F)C(F)F)c1)[C@@H](O)c1ccc(F)cc1)c1ccc(F)c2ccccc12 (racemic)", "Condition met"),
    ("O=C(NC(Cc1cccc(OC(F)(F)C(F)F)c1)C(O)c1ccc(F)cc1)c1cccc2c1C=CCCC2 (stereo not drawn) [229(+)-form]", "Condition met"),
    ("O=C(N[C@H](Cc1ccc2c(c1)OC(F)(F)C(F)(F)O2)[C@@H](O)c1ccc(F)cc1)c1ccc(F)c2ccccc12 (racemic)", "Condition not met"),
    ("CC(C)c1ccc(C[C@@H](NC(=O)c2cccc3c2C=CCCC3)[C@@H](O)c2ccc(F)cc2)cc1 (racemic)", "Condition not met"),
    ("O=C(N[C@H](Cc1cccc(OC(F)(F)C(F)F)c1)[C@@H](O)c1ccnc(F)c1)c1cccc2c1C=CCCC2 (racemic)", "Condition met"),
    ("O=C(N[C@H](Cc1ccc(C(F)(F)F)cc1)[C@@H](O)c1ccc(F)cc1)c1ccc(F)c2ccccc12 (racemic)", "Condition not met"),
    ("O=C(N[C@H](Cc1cccc(OC(F)(F)C(F)F)c1)[C@@H](O)c1ccc(Oc2ccccc2)cc1)c1cccc2c1C=CCCC2 (racemic)", "Condition met"),
    ("O=C(N[C@H](Cc1cccc(OC(F)(F)C(F)F)c1)[C@@H](O)c1ccc(F)cc1)c1cccc2c1CCCCC2 (racemic)", "Condition met"),
]

====

melting point values by entry
Counter-ions that a name gives are not always drawn.

# Compound, melting point
records = [
    ("O=C(O)CCC(=O)O[C@H](c1ccc(F)cc1)[C@H](Cc1cccc(OC(F)(F)C(F)F)c1)NC(=O)c1cccc2c1C=CCCC2 (racemic) (as salt: succinate)", "154 to 155 °C"),
    ("O=C(N[C@H](Cc1ccccc1C(F)(F)F)[C@@H](O)c1ccc(F)cc1)C1CCCCC1 (racemic)", "216 to 217 °C"),
    ("O=C(N[C@H](Cc1ccc(C(F)F)cc1)[C@@H](O)c1ccc(F)cc1)c1ccc(F)c2ccccc12 (racemic)", "212 to 213 °C"),
    ("O=Cc1cccc(-c2ccc([C@H](O)[C@@H](Cc3cccc(OC(F)(F)C(F)F)c3)NC(=O)c3cccc4c3C=CCCC4)cc2)c1 (racemic)", "103 to 105 °C"),
    ("O=C(N[C@H](Cc1ccc(C(F)(F)F)cc1)[C@@H](O)c1ccc(F)cc1)c1ccc(CO)c2ccccc12 (racemic)", "202 to 203 °C"),
    ("CC1(C)CCC=Cc2c(C(=O)N[C@H](Cc3cccc(OC(F)(F)C(F)F)c3)[C@@H](O)c3ccc(F)cc3)cccc21 (racemic)", "101 to 104 °C"),
]
